Below is a list of entries, each paired with its recorded Internalization FLU value.
target: membrane-bound human MSLN (on CHOK1-hu MSLN cells and endogenously on COV644 cells) (human, UniProt Q13421 296-598); experiment: cell-based or functional assay
Sequence (Q13421 other isoform, or with tags, fused parts or gaps limits assumed): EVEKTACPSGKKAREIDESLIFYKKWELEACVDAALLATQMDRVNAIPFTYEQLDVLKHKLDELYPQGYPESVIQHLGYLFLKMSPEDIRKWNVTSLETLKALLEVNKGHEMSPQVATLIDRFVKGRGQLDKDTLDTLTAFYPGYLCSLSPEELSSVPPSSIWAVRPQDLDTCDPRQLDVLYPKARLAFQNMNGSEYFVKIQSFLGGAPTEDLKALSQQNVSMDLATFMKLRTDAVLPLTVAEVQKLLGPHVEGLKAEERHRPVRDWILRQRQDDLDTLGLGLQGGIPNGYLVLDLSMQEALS

{"binder": "PR300159 (antibody, V domains shown, Parental antibody from Harbour H2L2 mice) VH: QVQLVESGGGVVQPGRSLRLSCAASGFTFSSDGMNWVRQAPGKGLEWVAVIWNDGSNKYYADSVKGRFTISRDNSKNTLYLQMNSLRAEDTAVYYCARDRGPLWPLDYWGQGTLVTVSS VL: DIQMTQSPSTLSASVGDRVTITCRASQSISRWLAWYQQKPGKAPKLLIYKASSLESGVPSRFSGSGSGTEFTLTISNLQPDDFATFYCQQYNSYSRTFGQGTKVEIKR", "unit": "FLU", "Internalization FLU": 22200}
{"binder": "PR300159-4 (antibody, V domains shown, PTM removal variant of PR300159: light chain S93A) VH: QVQLVESGGGVVQPGRSLRLSCAASGFTFSSDGMNWVRQAPGKGLEWVAVIWNDGSNKYYADSVKGRFTISRDNSKNTLYLQMNSLRAEDTAVYYCARDRGPLWPLDYWGQGTLVTVSS VL: DIQMTQSPSTLSASVGDRVTITCRASQSISRWLAWYQQKPGKAPKLLIYKASSLESGVPSRFSGSGSGTEFTLTISNLQPDDFATFYCQQYNAYSRTFGQGTKVEIKR", "unit": "FLU", "Internalization FLU": 20900}
{"binder": "PR300159-3 (antibody, V domains shown, PTM removal variant of PR300159: heavy chain G33A and G55A) VH: QVQLVESGGGVVQPGRSLRLSCAASGFTFSSDAMNWVRQAPGKGLEWVAVIWNDASNKYYADSVKGRFTISRDNSKNTLYLQMNSLRAEDTAVYYCARDRGPLWPLDYWGQGTLVTVSS VL: DIQMTQSPSTLSASVGDRVTITCRASQSISRWLAWYQQKPGKAPKLLIYKASSLESGVPSRFSGSGSGTEFTLTISNLQPDDFATFYCQQYNSYSRTFGQGTKVEIKR", "unit": "FLU", "Internalization FLU": 9180}
{"binder": "PR300159-6 (antibody, V domains shown, PTM removal variant of PR300159: light chain S93T) VH: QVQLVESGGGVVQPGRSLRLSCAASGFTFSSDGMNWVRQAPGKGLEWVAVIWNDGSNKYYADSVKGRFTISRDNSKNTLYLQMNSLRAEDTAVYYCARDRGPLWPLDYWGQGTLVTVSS VL: DIQMTQSPSTLSASVGDRVTITCRASQSISRWLAWYQQKPGKAPKLLIYKASSLESGVPSRFSGSGSGTEFTLTISNLQPDDFATFYCQQYNTYSRTFGQGTKVEIKR", "unit": "FLU", "Internalization FLU": 17800}
{"binder": "PR300159-5 (antibody, V domains shown, PTM removal variant of PR300159: light chain N92Q) VH: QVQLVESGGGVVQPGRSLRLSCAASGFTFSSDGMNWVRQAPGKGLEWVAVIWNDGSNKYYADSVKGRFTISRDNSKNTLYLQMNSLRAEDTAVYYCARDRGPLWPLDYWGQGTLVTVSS VL: DIQMTQSPSTLSASVGDRVTITCRASQSISRWLAWYQQKPGKAPKLLIYKASSLESGVPSRFSGSGSGTEFTLTISNLQPDDFATFYCQQYQSYSRTFGQGTKVEIKR", "unit": "FLU", "Internalization FLU": 20900}
{"binder": "PR300159-7 (antibody, V domains shown, PTM removal variant of PR300159: light chain N92T) VH: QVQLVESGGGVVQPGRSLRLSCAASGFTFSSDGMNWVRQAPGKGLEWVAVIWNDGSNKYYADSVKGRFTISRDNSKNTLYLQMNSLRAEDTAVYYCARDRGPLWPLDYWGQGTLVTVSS VL: DIQMTQSPSTLSASVGDRVTITCRASQSISRWLAWYQQKPGKAPKLLIYKASSLESGVPSRFSGSGSGTEFTLTISNLQPDDFATFYCQQYTSYSRTFGQGTKVEIKR", "unit": "FLU", "Internalization FLU": 22400}
{"binder": "PR300159-9 (antibody, V domains shown, PTM removal variant of PR300159: heavy chain G33A and D54E, light chain S93A) VH: QVQLVESGGGVVQPGRSLRLSCAASGFTFSSDAMNWVRQAPGKGLEWVAVIWNEGSNKYYADSVKGRFTISRDNSKNTLYLQMNSLRAEDTAVYYCARDRGPLWPLDYWGQGTLVTVSS VL: DIQMTQSPSTLSASVGDRVTITCRASQSISRWLAWYQQKPGKAPKLLIYKASSLESGVPSRFSGSGSGTEFTLTISNLQPDDFATFYCQQYNAYSRTFGQGTKVEIKR", "unit": "FLU", "Internalization FLU": 8300}
{"binder": "PR300159-1 (antibody, V domains shown, PTM removal variant of PR300159: heavy chain G33A and D54E, light chain N92S) VH: QVQLVESGGGVVQPGRSLRLSCAASGFTFSSDAMNWVRQAPGKGLEWVAVIWNEGSNKYYADSVKGRFTISRDNSKNTLYLQMNSLRAEDTAVYYCARDRGPLWPLDYWGQGTLVTVSS VL: DIQMTQSPSTLSASVGDRVTITCRASQSISRWLAWYQQKPGKAPKLLIYKASSLESGVPSRFSGSGSGTEFTLTISNLQPDDFATFYCQQYSSYSRTFGQGTKVEIKR", "unit": "FLU", "Internalization FLU": 13700}
{"binder": "PR300159-8 (antibody, V domains shown, PTM removal variant of PR300159: light chain N92A) VH: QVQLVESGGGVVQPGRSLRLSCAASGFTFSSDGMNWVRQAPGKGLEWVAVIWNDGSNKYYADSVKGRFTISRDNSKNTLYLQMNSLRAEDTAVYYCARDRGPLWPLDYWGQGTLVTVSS VL: DIQMTQSPSTLSASVGDRVTITCRASQSISRWLAWYQQKPGKAPKLLIYKASSLESGVPSRFSGSGSGTEFTLTISNLQPDDFATFYCQQYASYSRTFGQGTKVEIKR", "unit": "FLU", "Internalization FLU": 21200}
